Listing of recorded MIC by entry.
# Tested on: A. baumannii clinical isolates
# experiment description: microbe, parasite or virus in culture
# Assay type: cell-based
# measurement setup: Acinetobacter baumannii, isolate ARC6822 (IHMA 1637626), Guatemala, RTI, 2017, read-out: MIC
outcome measure: MIC

>>> endpoint_value("C[C@@H](O)[C@H]1C(=O)N2C(C(=O)O)=C(S[C@@H]3CN[C@H](C(=O)N(C)C)C3)[C@H](C)[C@H]12")
"> 64 µg/mL"
>>> endpoint_value("CC1(C)[C@H](C(=O)O)N2C(=O)C[C@H]2S1(=O)=O")
"> 64 µg/mL"
>>> endpoint_value("C[C@@H](O)[C@H]1C(=O)N2C(C(=O)O)=C(SCCN=CN)C[C@H]12")
"64 µg/mL"
>>> endpoint_value("CN(C)c1cc(NC(=O)CNC(C)(C)C)c(O)c2c1C[C@H]1C[C@H]3[C@H](N(C)C)C(O)=C(C(N)=O)C(=O)[C@@]3(O)C(O)=C1C2=O")
"0.25 µg/mL"

----------
Listing of recorded MIC by entry.
# Tested on: isogenic A. baylyi ADP1 panel encoding wildtype or mutant PBP3
# experiment description: Broth microdilution MIC, isogenic A. baylyi panel (PBP3 variants with or without overexpressed β-lactamases)
# Format: cell-based
# measurement setup: Acinetobacter baylyi, A. baylyi; PBP3 Wildtype; overexpressed ADC-30; read-out: MIC
outcome measure: MIC (µg/mL)

>>> endpoint_value("CC1(C)[C@H](C(=O)O)N2C(=O)C[C@H]2S1(=O)=O")
2
>>> endpoint_value("C[C@@H](O)[C@H]1C(=O)N2C(C(=O)O)=C(S[C@@H]3CN[C@H](C(=O)N(C)C)C3)[C@H](C)[C@H]12")
0.13
>>> endpoint_value("C[C@H]1[C@H](NC(=O)/C(=N\\OC(C)(C)C(=O)O)c2csc(N)n2)C(=O)N1S(=O)(=O)O")
32
>>> endpoint_value("C[C@@H](O)[C@H]1C(=O)N2C(C(=O)O)=C(SCCN=CN)C[C@H]12")
0.13

----------
# Test system: isogenic A. baylyi ADP1 panel encoding wildtype or mutant PBP3
# experiment description: Broth microdilution MIC, isogenic A. baylyi panel (PBP3 variants with or without overexpressed β-lactamases)
# Assay type: cell-based
# measurement setup: Acinetobacter baylyi, A. baylyi; PBP3 Wildtype; overexpressed TEM-1; read-out: MIC
Listing of recorded MIC by entry.
outcome measure: MIC (µg/mL)

>>> endpoint_value("C[C@@H](O)[C@H]1C(=O)N2C(C(=O)O)=C(S[C@@H]3CN[C@H](C(=O)N(C)C)C3)[C@H](C)[C@H]12")
0.13
>>> endpoint_value("C[C@H]1[C@H](NC(=O)/C(=N\\OC(C)(C)C(=O)O)c2csc(N)n2)C(=O)N1S(=O)(=O)O")
32
>>> endpoint_value("C[C@@H](O)[C@H]1C(=O)N2C(C(=O)O)=C(SCCN=CN)C[C@H]12")
0.03
>>> endpoint_value("CC1(C)[C@H](C(=O)O)N2C(=O)C[C@H]2S1(=O)=O")
16

----------
Listing of recorded MIC by entry.
# Tested on: A. baumannii clinical isolates
# experiment description: microbe, parasite or virus in culture
# Assay type: cell-based
# measurement setup: Acinetobacter baumannii, isolate ARC7093 (IHMA 2258783), United States, RTI, 2020, read-out: MIC
outcome measure: MIC (µg/mL)

>>> endpoint_value("CN(C)c1cc(NC(=O)CNC(C)(C)C)c(O)c2c1C[C@H]1C[C@H]3[C@H](N(C)C)C(O)=C(C(N)=O)C(=O)[C@@]3(O)C(O)=C1C2=O [TIG, tigecycline]")
2
>>> endpoint_value("CC1(C)[C@H](C(=O)O)N2C(=O)C[C@H]2S1(=O)=O [sulbactam]")
64

----------
# Test system: A. baumannii clinical isolates
# experiment description: microbe, parasite or virus in culture
# Assay type: cell-based
# measurement setup: Acinetobacter baumannii, isolate ARC6955 (IHMA 1825425), United States, RTI, 2018, read-out: MIC
Listing of recorded MIC by entry.
outcome measure: MIC (µg/mL)

>>> endpoint_value("C[C@@H](O)[C@H]1C(=O)N2C(C(=O)O)=C(S[C@@H]3CN[C@H](C(=O)N(C)C)C3)[C@H](C)[C@H]12 [meropenem]")
64
>>> endpoint_value("C[C@@H](O)[C@H]1C(=O)N2C(C(=O)O)=C(SCCN=CN)C[C@H]12 [imipenem]")
64
>>> endpoint_value("CN(C)c1cc(NC(=O)CNC(C)(C)C)c(O)c2c1C[C@H]1C[C@H]3[C@H](N(C)C)C(O)=C(C(N)=O)C(=O)[C@@]3(O)C(O)=C1C2=O [TIG, tigecycline]")
0.5
>>> endpoint_value("CC1(C)[C@H](C(=O)O)N2C(=O)C[C@H]2S1(=O)=O [sulbactam]")
16

----------
Listing of recorded MIC by entry.
# Tested on: A. baumannii clinical isolates
# experiment description: microbe, parasite or virus in culture
# Type: cell-based
# measurement setup: Acinetobacter baumannii, isolate ARC6812 (IHMA 1699530), Guatemala, RTI, 2017, read-out: MIC
outcome measure: MIC (µg/mL)

>>> endpoint_value("CN(C)c1cc(NC(=O)CNC(C)(C)C)c(O)c2c1C[C@H]1C[C@H]3[C@H](N(C)C)C(O)=C(C(N)=O)C(=O)[C@@]3(O)C(O)=C1C2=O")
0.5
>>> endpoint_value("C[C@@H](O)[C@H]1C(=O)N2C(C(=O)O)=C(SCCN=CN)C[C@H]12")
64

----------
# Tested on: A. baumannii PBP3 N392T
# experiment description: Acylation rate constant (kinact/Ki), fluorescence anisotropy competition with BOCILLIN
Listing of recorded % WT by entry.
outcome measure: % WT (%)

>>> endpoint_value("C[C@@H](O)[C@H]1C(=O)N2C(C(=O)O)=C(S[C@@H]3CN[C@H](C(=O)N(C)C)C3)[C@H](C)[C@H]12")
164
>>> endpoint_value("C[C@H]1[C@H](NC(=O)/C(=N\\OC(C)(C)C(=O)O)c2csc(N)n2)C(=O)N1S(=O)(=O)O")
22.9
>>> endpoint_value("C[C@@H](O)[C@H]1C(=O)N2C(C(=O)O)=C(SCCN=CN)C[C@H]12")
175.6

----------
# Tested on: isogenic A. baylyi ADP1 panel encoding wildtype or mutant PBP3
# experiment description: Broth microdilution MIC, isogenic A. baylyi panel (PBP3 variants with or without overexpressed β-lactamases)
# Type: cell-based
# measurement setup: Acinetobacter baylyi, A. baylyi; PBP3 Wildtype; overexpressed OXA-24; read-out: MIC
# Experimental: To understand the effect of PBP3 variants on whole cell activity in the absence of other resistance determinants, the MIC values of sulbactam, SUL-DUR and comparator β-lactams were measured against an isogenic A. baylyi panel engineered to contain individual strains in which the endogenous PBP3 was replaced with the variant of interest. […]
Listing of recorded MIC by entry.
outcome measure: MIC (mg/L)

>>> endpoint_value("C[C@@H](O)[C@H]1C(=O)N2C(C(=O)O)=C(SCCN=CN)C[C@H]12")
8
>>> endpoint_value("C[C@H]1[C@H](NC(=O)/C(=N\\OC(C)(C)C(=O)O)c2csc(N)n2)C(=O)N1S(=O)(=O)O")
32
>>> endpoint_value("CC1(C)[C@H](C(=O)O)N2C(=O)C[C@H]2S1(=O)=O")
16

----------
# System: A. baumannii clinical isolates
# experiment description: microbe, parasite or virus in culture
# Assay type: cell-based
# measurement setup: Acinetobacter baumannii, isolate ARC6810 (IHMA 1699548), Guatemala, RTI, 2017, read-out: MIC
outcome measure: MIC

>>> endpoint_value("C[C@@H](O)[C@H]1C(=O)N2C(C(=O)O)=C(SCCN=CN)C[C@H]12")
"> 64 µg/mL"
>>> endpoint_value("C[C@@H](O)[C@H]1C(=O)N2C(C(=O)O)=C(S[C@@H]3CN[C@H](C(=O)N(C)C)C3)[C@H](C)[C@H]12")
"> 64 µg/mL"
>>> endpoint_value("CC1(C)[C@H](C(=O)O)N2C(=O)C[C@H]2S1(=O)=O")
"> 64 µg/mL"
>>> endpoint_value("CN(C)c1cc(NC(=O)CNC(C)(C)C)c(O)c2c1C[C@H]1C[C@H]3[C@H](N(C)C)C(O)=C(C(N)=O)C(=O)[C@@]3(O)C(O)=C1C2=O")
"1 µg/mL"

----------
# assayed system: A. baumannii PBP3 H370Y
# experiment description: Acylation rate constant (kinact/Ki), fluorescence anisotropy competition with BOCILLIN
# measurement setup: average ± SD
Listing of recorded k inact/K i by entry.
outcome measure: k inact/K i

>>> endpoint_value("C[C@@H](O)[C@H]1C(=O)N2C(C(=O)O)=C(SCCN=CN)C[C@H]12 [imipenem]")
"480 ± 40 ([2]) M^-1s^-1"
>>> endpoint_value("CC1(C)[C@H](C(=O)O)N2C(=O)C[C@H]2S1(=O)=O [sulbactam]")
"19 ± 2 ([2]) M^-1s^-1"
>>> endpoint_value("C[C@H]1[C@H](NC(=O)/C(=N\\OC(C)(C)C(=O)O)c2csc(N)n2)C(=O)N1S(=O)(=O)O [aztreonam]")
"430 ± 30 ([2]) M^-1s^-1"
>>> endpoint_value("C[C@@H](O)[C@H]1C(=O)N2C(C(=O)O)=C(S[C@@H]3CN[C@H](C(=O)N(C)C)C3)[C@H](C)[C@H]12 [meropenem]")
"6,000 ± 10 ([2]) M^-1s^-1"
